# CC50 annotations
Test Method Notes: cytotoxicity (CC50), Table 1
Property: CC50

>>> observed_measurement("COc1cc2c(cc1C(=O)Nc1ccc(C(C)(C)O)cc1)CCCCC2")
"24.9 µM"
>>> observed_measurement("COc1cc2c(cc1C(=O)Nc1ccc(N3CCCS3(=O)=O)cc1)CCCCC2")
"> 40 µM"
>>> observed_measurement("COc1cc2c(cc1C(=O)Nc1cc(C(C)(C)C)[nH]n1)CCCCC2")
"15.5 µM"
>>> observed_measurement("CCc1cc2c(cc1C(=O)Nc1ccc(C(C)(C)C)cc1)CCCCC2")
"> 40 µM"
>>> observed_measurement("CCOc1cc2c(cc1C(=O)Nc1ccc(C(C)(C)C)cc1)CCCCC2")
"> 40 µM"
>>> observed_measurement("COc1cc2c(cc1C(=O)Nc1ccc(-c3ccccc3)cn1)CCCCC2")
"> 40 µM"
>>> observed_measurement("CCn1ccc(NC(=O)c2cc3c(cc2OC)CCCCC3)n1")
"> 40 µM"
>>> observed_measurement("COc1cc2c(cc1C(=O)Nc1ncc(C(C)(C)C)s1)CCCCC2")
"> 40 µM"
>>> observed_measurement("COc1cc2c(cc1C(=O)Nc1ccc(-c3cc[nH]n3)cc1)CCCCC2")
"23.2 µM"
>>> observed_measurement("COc1cc2c(cc1C(=O)Nc1cccnc1SC)CCCCC2")
"> 40 µM"
>>> observed_measurement("COc1cc2c(cc1C(=O)Nc1cnc(C(C)(C)C)s1)CCCCC2")
"> 40 µM"
>>> observed_measurement("CCn1nc(NC(=O)c2cc3c(nc2OC)CCCCC3)cc1C")
"> 40 µM"
>>> observed_measurement("COc1nc2c(cc1C(=O)Nc1ccc(C(C)(C)C)cn1)CCCCC2")
"> 40 µM"
>>> observed_measurement("CC(C)(C)c1ccc(NC(=O)c2cc3c(cc2O)CCCCC3)nc1")
"> 40 µM"
>>> observed_measurement("CCn1nc(NC(=O)c2cc3c(cc2O)CCCCC3)cc1C")
"> 40 µM"
>>> observed_measurement("CCn1nc(C(F)(F)F)c(NC(=O)c2cc3c(cc2OC)CCCCC3)c1C")
"> 40 µM"
>>> observed_measurement("CC(C)(C)c1ccc(NC(=O)c2cc3c(cc2O)CCCCC3)cc1")
"9.8 µM"
>>> observed_measurement("COc1cc2c(cc1C(=O)Nc1ccc(-c3ccccc3)cc1)CCCCC2")
"> 40 µM"
>>> observed_measurement("COc1cc2c(cc1C(=O)Nc1ccc(C(C)(C)C#N)cc1)CCCCC2")
"> 40 µM"
>>> observed_measurement("COc1cc2c(cc1CC(=O)N1CCC(F)(F)CC1)CCCCC2")
"> 40 µM"
>>> observed_measurement("COc1cc2c(cc1C(=O)NNc1ccc(C(C)(C)C)cc1)CCCCC2")
"> 40 µM"
